Note to self: these compounds have IC50 reported for NAMPT (Homo sapiens, UniProt P43490) in various publications.
The reply should contain only the number, in nM.

Here are 3 compounds together with their reported answers.
COc1ccccc1C(=O)N1CCC(c2ccc(C(=O)NCc3ccn4ccnc4c3)s2)C1 (stereo not shown) ... 0.71
CC(C)(O)CC(=O)N1CCC(c2ccc(NC(=O)NCc3ccn4ccnc4c3)cc2)CC1 ... 0.608
COCCC(=O)N(CCc1cccc(F)c1)c1ncc(C(=O)NCCCn2ccnc2)s1 ... 1.31

Turning now to a further record.
[in] Can you share its IC50? I mean this compound: CC[C@H](C)C(=O)N1CCC(c2ccc(NC(=O)C3CN(c4cccnc4)C3)cc2)CC1
[out] 0.169
